// values below are Ki; system is Serine protease 1 (Homo sapiens, UniProt P07477)
Sequence (P07477 whole entry): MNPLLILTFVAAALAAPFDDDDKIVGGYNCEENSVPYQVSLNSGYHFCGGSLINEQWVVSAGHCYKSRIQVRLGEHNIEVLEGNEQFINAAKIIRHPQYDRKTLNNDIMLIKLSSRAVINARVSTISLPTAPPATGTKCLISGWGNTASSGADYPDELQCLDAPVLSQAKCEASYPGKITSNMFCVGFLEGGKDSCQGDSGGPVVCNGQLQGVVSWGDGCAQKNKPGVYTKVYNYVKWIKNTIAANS
One number for each entry, in nM.

MOLECULE: COc1cc([C@@H](Nc2ccc(C(=N)N)cc2)C(=O)N[C@H](C(=O)O)c2ccccc2)c(C(=O)Cc2ccccc2)cc1OCc1ccccc1
SCALE_UNIT: nM
OBSERVED: 80

MOLECULE: CCOc1cc(C(Nc2ccc(C(=N)N)cc2)C(=O)NCc2ccccc2)ccc1OCc1ccccc1 (configuration not stated)
SCALE_UNIT: nM
OBSERVED: 1100

MOLECULE: COc1cc(CNc2ccc(C(=N)N)cc2)ccc1OCc1ccccc1
SCALE_UNIT: nM
OBSERVED: 580

MOLECULE: COc1cc(C(Nc2ccc(C(=N)N)cc2)C(=O)NCc2ccccc2)ccc1OCc1ccccc1 (configuration not stated)
SCALE_UNIT: nM
OBSERVED: 210

MOLECULE: COc1cc([C@@H](Nc2ccc(C(=N)N)cc2)C(=O)N[C@H](C(=O)O)c2ccccc2)c(S(=O)(=O)c2ccccc2)cc1OCc1ccccc1
SCALE_UNIT: nM
OBSERVED: 50

MOLECULE: COc1cc(C(Nc2ccc(C(=N)N)cc2)C(=O)NCc2ccccc2)c(S(=O)(=O)c2ccccc2)cc1OCc1ccccc1 (configuration not stated)
SCALE_UNIT: nM
OBSERVED: 420

Below: the item to evaluate.
response.value for "COc1cc([C@@H](Nc2ccc(C(=N)N)cc2)C(=O)N[C@H](C(=O)O)c2ccccc2)ccc1OCc1ccccc1" (field: Ki) = 40

###

- TEST_TARGET: Coagulation factor X (Homo sapiens)
- Sequence (P00742 41-179 limits assumed): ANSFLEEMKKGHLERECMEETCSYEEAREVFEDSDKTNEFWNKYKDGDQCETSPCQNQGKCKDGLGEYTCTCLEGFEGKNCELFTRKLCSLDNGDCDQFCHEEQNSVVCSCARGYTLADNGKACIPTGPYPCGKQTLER
- Sequence (P00742 235-488 limits assumed): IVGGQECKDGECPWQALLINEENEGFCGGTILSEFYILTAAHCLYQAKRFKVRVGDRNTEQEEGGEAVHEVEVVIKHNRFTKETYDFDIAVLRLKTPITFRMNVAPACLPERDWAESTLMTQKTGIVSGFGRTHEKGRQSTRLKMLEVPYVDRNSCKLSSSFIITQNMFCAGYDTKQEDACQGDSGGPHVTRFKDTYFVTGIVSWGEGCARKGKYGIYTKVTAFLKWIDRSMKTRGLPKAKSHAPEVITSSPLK
REPORTED_ENDPOINT: Ki (µM)
One number for each entry, in µM.

response.value for "COc1cc(CNc2ccc(C(=N)N)cc2)ccc1OCc1ccccc1" (field: Ki) = 1.2
